From: paper PMC8509773

system: SK-MEL-5; assay: NCI-60 SRB screening (one-dose and five-dose); type: cell-based, human; conditions: SK-MEL-5, 10 μM, 48 h
measurement.type: Growth Percent (%)
Your answer is read as %, so omit the unit and give the number.

Below: 6 compounds and their reported Growth Percent.
compound: COC(=O)[C@]12CC[C@@H](C(=O)/C=C/c3cccnc3)[C@@H]1[C@H]1CC[C@@H]3[C@@]4(C)C/C(=C\c5cccnc5)C(=O)C(C)(C)[C@@H]4CC[C@@]3(C)[C@]1(C)CC2 [Compound 7]
measurement.type: Growth Percent
unit: %
test.result: −98.85

compound: C[C@H]1[C@@H]2[C@H]3CC[C@@H]4[C@@]5(C)CC[C@H](O)C(C)(C)[C@@H]5CC[C@@]4(C)[C@]3(C)CC[C@]23CO[C@@]1(C)[C@@H](C(=O)/C=C/c1ccco1)C3 [Compound 5]
measurement.type: Growth Percent
unit: %
test.result: 8.55

compound: CC(=O)[C@H]1C[C@]23CC[C@]4(C)[C@H](CC[C@@H]5[C@@]6(C)CCC(=O)C(C)(C)[C@@H]6CC[C@]54C)[C@H]2[C@H](C)[C@@]1(C)OC3 [Compound 2]
measurement.type: Growth Percent
unit: %
test.result: 100.12

compound: CC(=O)O[C@H]1CC[C@]2(C)[C@H]3CC[C@@H]4[C@H]5[C@H](C)[C@@]6(C)OC[C@]5(CC[C@@]4(C)[C@]3(C)CC[C@H]2C1(C)C)CC6C(C)=O (stereo partly shown) [Compound 1]
measurement.type: Growth Percent
unit: %
test.result: 47.27

compound: C[C@H]1[C@@H]2[C@H]3CC[C@@H]4[C@@]5(C)CC[C@H](O)C(C)(C)[C@@H]5CC[C@@]4(C)[C@]3(C)CC[C@]23CO[C@@]1(C)C(C(=O)/C=C/c1cccnc1)C3 (stereo partly shown) [Compound 4]
measurement.type: Growth Percent
unit: %
test.result: 37.02

compound: COC(=O)[C@]12CC[C@@H](C(C)=O)[C@@H]1[C@H]1CC[C@@H]3[C@@]4(C)C/C(=C\c5cccnc5)C(=O)C(C)(C)[C@@H]4CC[C@@]3(C)[C@]1(C)CC2 [Compound 8]
measurement.type: Growth Percent
unit: %
test.result: 39.76

Now consider a different compound.
Look up and report Growth Percent, with SK-MEL-5 as system, for C[C@H]1[C@@H]2[C@H]3CC[C@@H]4[C@@]5(C)C/C(=C\c6cccnc6)C(=O)C(C)(C)[C@@H]5CC[C@@]4(C)[C@]3(C)CC[C@]23CO[C@@]1(C)[C@@H](C(=O)/C=C/c1cccnc1)C3 [Compound 6] −82.25

====

Listed here are compounds together with their documented Growth Percent.
tested on: COLO 205; experiment: NCI-60 SRB screening (one-dose and five-dose); type: cell-based, human; conditions: COLO 205, 10 μM, 48 h
Your answer is read as %, so omit the unit and give the number.

Below: 6 compounds and their reported Growth Percent.
compound: C[C@H]1[C@@H]2[C@H]3CC[C@@H]4[C@@]5(C)CC[C@H](O)C(C)(C)[C@@H]5CC[C@@]4(C)[C@]3(C)CC[C@]23CO[C@@]1(C)[C@@H](C(=O)/C=C/c1ccco1)C3
measurement.type: Growth Percent
unit: %
test.result: −2.30
//
compound: CC(=O)O[C@H]1CC[C@]2(C)[C@H]3CC[C@@H]4[C@H]5[C@H](C)[C@@]6(C)OC[C@]5(CC[C@@]4(C)[C@]3(C)CC[C@H]2C1(C)C)CC6C(C)=O (stereo partly shown)
measurement.type: Growth Percent
unit: %
test.result: 71.47
//
compound: COC(=O)[C@]12CC[C@@H](C(C)=O)[C@@H]1[C@H]1CC[C@@H]3[C@@]4(C)C/C(=C\c5cccnc5)C(=O)C(C)(C)[C@@H]4CC[C@@]3(C)[C@]1(C)CC2
measurement.type: Growth Percent
unit: %
test.result: 82.53
//
compound: CC(=O)[C@H]1C[C@]23CC[C@]4(C)[C@H](CC[C@@H]5[C@@]6(C)CCC(=O)C(C)(C)[C@@H]6CC[C@]54C)[C@H]2[C@H](C)[C@@]1(C)OC3
measurement.type: Growth Percent
unit: %
test.result: 111.81
//
compound: C[C@H]1[C@@H]2[C@H]3CC[C@@H]4[C@@]5(C)CC[C@H](O)C(C)(C)[C@@H]5CC[C@@]4(C)[C@]3(C)CC[C@]23CO[C@@]1(C)C(C(=O)/C=C/c1cccnc1)C3 (stereo partly shown)
measurement.type: Growth Percent
unit: %
test.result: 56.27
//
compound: C[C@H]1[C@@H]2[C@H]3CC[C@@H]4[C@@]5(C)C/C(=C\c6cccnc6)C(=O)C(C)(C)[C@@H]5CC[C@@]4(C)[C@]3(C)CC[C@]23CO[C@@]1(C)[C@@H](C(=O)/C=C/c1cccnc1)C3
measurement.type: Growth Percent
unit: %
test.result: −56.84

Now consider a different compound.
Please give the documented Growth Percent of `COC(=O)[C@]12CC[C@@H](C(=O)/C=C/c3cccnc3)[C@@H]1[C@H]1CC[C@@H]3[C@@]4(C)C/C(=C\c5cccnc5)C(=O)C(C)(C)[C@@H]4CC[C@@]3(C)[C@]1(C)CC2` −45.07
